Data provenance: patent US10981926B2

For each record, write down the corresponding rGABA-gated Cl− channel % inh @10 μM.
system: rGABA-gated Cl− channel; experiment: GABA-Gated Cl Channel Antagonist Radioligand Binding Assay; design: species or system rat; details: 10 μM single point, [35S]-TBPS, cerebral cortex membrane homogenates
Hi, when you answer, please include the unit after the number. Thanks!

Lab note: need rGABA-gated Cl− channel % inh @10 μM for Cc1cc(N2C(=O)C3(CCC3)N(c3ccc(OC4CCN(C)CC4)nc3)C2=S)cnc1C#N [Cpd 2] on rGABA-gated Cl− channel, anyone have it?
1.6%

Lab note: need rGABA-gated Cl− channel % inh @10 μM for COCCN1CCC(Oc2ccc(N3C(=S)N(c4cnc(C#N)c(C)c4)C(=O)C34CCC4)cc2)CC1 [Cpd 37] on rGABA-gated Cl− channel, anyone have it?
18.8%

Lab note: need rGABA-gated Cl− channel % inh @10 μM for N#Cc1ncc(N2C(=O)C3(CCC3)N(c3ccc(O[C@H]4C[C@H]5CC[C@@H](C4)N5)cc3)C2=S)cc1C(F)(F)F [Cpd 29] on rGABA-gated Cl− channel, anyone have it?
39.9%

Lab note: need rGABA-gated Cl− channel % inh @10 μM for N#Cc1ncc(N2C(=O)C3(CCC3)N(c3ccc(OCC4CNCCO4)cc3)C2=S)cc1C(F)(F)F (stereo not shown) [Cpd 74] on rGABA-gated Cl− channel, anyone have it?
13.9%

====

molecular target: F876L mutant Androgen Receptor (AR-F876L) (Homo sapiens (Human), UniProt P10275, F877L); experiment: LNCaP-AR-F876L AG reporter assay (agonist mode); assay type: cell-based; conditions: maximum % stimulation (agonist response) over the tested concentration range; read-out: LNCaP-AR-F876L AG MAX % Stim
Sequence (P10275 whole entry F877L): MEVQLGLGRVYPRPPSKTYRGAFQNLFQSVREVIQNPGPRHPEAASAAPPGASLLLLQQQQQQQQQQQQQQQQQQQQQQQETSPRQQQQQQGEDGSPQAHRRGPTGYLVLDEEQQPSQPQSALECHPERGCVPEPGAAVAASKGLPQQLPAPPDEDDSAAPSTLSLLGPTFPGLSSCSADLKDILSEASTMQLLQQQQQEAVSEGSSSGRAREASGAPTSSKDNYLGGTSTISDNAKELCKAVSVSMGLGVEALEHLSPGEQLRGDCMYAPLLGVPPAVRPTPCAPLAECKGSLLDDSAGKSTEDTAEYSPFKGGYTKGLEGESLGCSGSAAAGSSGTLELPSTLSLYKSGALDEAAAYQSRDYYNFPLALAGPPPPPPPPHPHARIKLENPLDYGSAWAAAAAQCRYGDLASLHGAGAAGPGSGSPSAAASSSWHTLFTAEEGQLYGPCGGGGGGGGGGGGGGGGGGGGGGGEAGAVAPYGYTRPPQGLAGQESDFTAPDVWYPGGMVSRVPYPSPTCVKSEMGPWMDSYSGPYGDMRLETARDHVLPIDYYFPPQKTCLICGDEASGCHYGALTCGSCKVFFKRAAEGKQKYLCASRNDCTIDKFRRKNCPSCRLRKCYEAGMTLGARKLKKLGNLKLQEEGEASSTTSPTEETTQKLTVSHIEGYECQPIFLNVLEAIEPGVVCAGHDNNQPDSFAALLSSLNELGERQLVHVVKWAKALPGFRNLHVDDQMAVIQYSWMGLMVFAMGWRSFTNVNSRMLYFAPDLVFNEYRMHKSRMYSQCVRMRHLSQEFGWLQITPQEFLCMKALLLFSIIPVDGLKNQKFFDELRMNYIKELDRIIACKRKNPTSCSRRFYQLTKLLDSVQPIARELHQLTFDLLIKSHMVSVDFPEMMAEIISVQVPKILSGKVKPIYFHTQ
For each record, write down the corresponding Emax.
Note: unit % is implicit; provide only the numeric part.

Lab note: need Emax for N#Cc1ncc(N2C(=O)C3(CCC3)N(c3ccc(OC4CCN(CC(O)CN)CC4)cc3)C2=S)cc1C(F)(F)F (stereo not shown) [Cpd 157] on F876L mutant Androgen Receptor (AR-F876L) (Homo sapiens (Human), UniProt P10275, F877L), anyone have it?
0

Lab note: need Emax for Cc1cc(N2C(=O)C3(CCC3)N(c3ccc(OC4CCN(CC(F)(F)F)CC4)nc3)C2=S)cnc1C#N [Cpd 62] on F876L mutant Androgen Receptor (AR-F876L) (Homo sapiens (Human), UniProt P10275, F877L), anyone have it?
0.2

Lab note: need Emax for Cc1cc(N2C(=O)C3(CCC3)N(c3ccc(OC4CCN(CCF)CC4)nc3)C2=S)cnc1C#N [Cpd 78] on F876L mutant Androgen Receptor (AR-F876L) (Homo sapiens (Human), UniProt P10275, F877L), anyone have it?
0

Lab note: need Emax for COCCn1cc2cc(N3C(=S)N(c4cnc(C#N)c(Cl)c4)C(=O)C34CCC4)ccc2n1 [Cpd 169] on F876L mutant Androgen Receptor (AR-F876L) (Homo sapiens (Human), UniProt P10275, F877L), anyone have it?
0.2

Lab note: need Emax for N#Cc1ncc(N2C(=O)C3(CCC3)N(c3ccc4nn(CCO)cc4c3)C2=S)cc1C(F)(F)F [Cpd 161] on F876L mutant Androgen Receptor (AR-F876L) (Homo sapiens (Human), UniProt P10275, F877L), anyone have it?
0.3

Lab note: need Emax for Cn1ncc2cc(N3C(=S)N(c4cnc(C#N)c(Cl)c4)C(=O)C34CCC4)ccc21 [Cpd 168] on F876L mutant Androgen Receptor (AR-F876L) (Homo sapiens (Human), UniProt P10275, F877L), anyone have it?
0.8

Lab note: need Emax for COCCn1cc2cc(N3C(=S)N(c4cnc(C#N)c(C(F)(F)F)c4)C(=O)C34CCC4)ccc2n1 [Cpd 172] on F876L mutant Androgen Receptor (AR-F876L) (Homo sapiens (Human), UniProt P10275, F877L), anyone have it?
-0.1

Lab note: need Emax for N#Cc1ncc(N2C(=O)C3(CCC3)N(c3ccc4c(cnn4C4CCNCC4)c3)C2=S)cc1Cl [Cpd 182] on F876L mutant Androgen Receptor (AR-F876L) (Homo sapiens (Human), UniProt P10275, F877L), anyone have it?
0.1

Lab note: need Emax for C=CCN1CCC(Oc2ccc(N3C(=S)N(c4cnc(C#N)c(C(F)(F)F)c4)C(=O)C34CCC4)cn2)CC1 [Cpd 88] on F876L mutant Androgen Receptor (AR-F876L) (Homo sapiens (Human), UniProt P10275, F877L), anyone have it?
0.4

Lab note: need Emax for CN1CCC(Cn2cc3cc(N4C(=S)N(c5cnc(C#N)c(C(F)(F)F)c5)C(=O)C45CCC5)ccc3n2)CC1 [Cpd 129] on F876L mutant Androgen Receptor (AR-F876L) (Homo sapiens (Human), UniProt P10275, F877L), anyone have it?
0.1

Lab note: need Emax for N#Cc1ncc(N2C(=O)C3(CCC3)N(c3ccc4[nH]ncc4c3)C2=S)cc1Cl [Cpd 155] on F876L mutant Androgen Receptor (AR-F876L) (Homo sapiens (Human), UniProt P10275, F877L), anyone have it?
2.6

Lab note: need Emax for COc1cc(N2C(=O)C3(CCC3)N(c3ccc4nn(CCO)cc4c3)C2=S)cnc1C#N [Cpd 164] on F876L mutant Androgen Receptor (AR-F876L) (Homo sapiens (Human), UniProt P10275, F877L), anyone have it?
0

Lab note: need Emax for C#CCN1CC(Oc2ccc(N3C(=S)N(c4cnc(C#N)c(C(F)(F)F)c4)C(=O)C34CCC4)cc2)C1 [Cpd 117] on F876L mutant Androgen Receptor (AR-F876L) (Homo sapiens (Human), UniProt P10275, F877L), anyone have it?
0.9

Lab note: need Emax for N#Cc1ncc(N2C(=O)C3(CCC3)N(c3ccc(OC4CC5CC4CN5)nc3)C2=S)cc1C(F)(F)F (stereo not shown) [Cpd 165] on F876L mutant Androgen Receptor (AR-F876L) (Homo sapiens (Human), UniProt P10275, F877L), anyone have it?
0

Lab note: need Emax for N#Cc1ncc(N2C(=O)C3(CCC3)N(c3ccc4nn(C5CCNCC5)cc4c3)C2=S)cc1C(F)(F)F [Cpd 115] on F876L mutant Androgen Receptor (AR-F876L) (Homo sapiens (Human), UniProt P10275, F877L), anyone have it?
0.1

Lab note: need Emax for N#Cc1ncc(N2C(=O)C3(CCC3)N(c3ccc(N4CCOCC4)cc3)C2=S)cc1C(F)(F)F [Cpd 69] on F876L mutant Androgen Receptor (AR-F876L) (Homo sapiens (Human), UniProt P10275, F877L), anyone have it?
0.1

====

molecular target: wild-type Androgen Receptor (AR-wt) (Homo sapiens (Human), UniProt P10275); test: LNCaP-AR-wt ANT reporter assay (antagonist mode); format: cell-based; conditions: antagonist mode; pIC50 = −Log10(IC50 in Molar); read-out: LNCaP-AR-wt ANT pIC50 (converted)
Sequence (P10275 whole entry): as the sequence (P10275 whole entry F877L) above, with L877F counted along it
endpoint-name: IC50 (nM)
Note: unit nM is implicit; provide only the numeric part.

I am curious: what IC50 value has been reported for CN1CCC(n2ccc3cc(N4C(=S)N(c5cnc(C#N)c(C(F)(F)F)c5)C(=O)C45CCC5)ccc32)CC1 ?
288

I am curious: what IC50 value has been reported for N#Cc1ncc(N2C(=O)C3(CCC3)N(c3ccc(OC4CCN(CC(O)CN)CC4)cc3)C2=S)cc1C(F)(F)F (stereo not drawn) ?
724

I am curious: what IC50 value has been reported for C[N@+]1([O-])CC[C@@H](Oc2ccc(N3C(=S)N(c4cnc(C#N)c(C(F)(F)F)c4)C(=O)C34CCC4)cc2)CC1 ?
1380

I am curious: what IC50 value has been reported for N#Cc1ncc(N2C(=O)C3(CCC3)N(c3ccc(OC4CC5(CNC5)C4)cc3)C2=S)cc1C(F)(F)F ?
123

I am curious: what IC50 value has been reported for N#Cc1ncc(N2C(=O)C3(CCC3)N(c3ccc(N4CCN(C(=O)N5CCCC5)CC4)cc3)C2=S)cc1C(F)(F)F ?
93.3

I am curious: what IC50 value has been reported for N#CCN1CCC(Oc2ccc(N3C(=S)N(c4cnc(C#N)c(Cl)c4)C(=O)C34CCC4)cc2)CC1 ?
53.7

I am curious: what IC50 value has been reported for N#Cc1ncc(N2C(=O)C3(CCC3)N(c3ccc4nn(C5CCNCC5)cc4c3)C2=S)cc1Cl ?
219

I am curious: what IC50 value has been reported for N#Cc1ncc(N2C(=O)C3(CCC3)N(c3ccc(O[C@H]4CCNC[C@@H]4F)cc3)C2=S)cc1C(F)(F)F (racemic) ?
112

I am curious: what IC50 value has been reported for N#Cc1ncc(N2C(=O)C3(CCC3)N(c3cnc(OC4CCN(CCO)CC4)nc3)C2=S)cc1C(F)(F)F ?
407

I am curious: what IC50 value has been reported for CN1C2CCC1CC(c1ccc(N3C(=S)N(c4cnc(C#N)c(C(F)(F)F)c4)C(=O)C34CCC4)cc1)C2 (stereo not drawn) ?
2690

I am curious: what IC50 value has been reported for CN1CCC(Oc2ccc(N3C(=S)N(c4cnc(C#N)c(C(F)(F)F)c4)C(=O)C34CCC4)cc2)CC1=O (racemic) ?
69.2

I am curious: what IC50 value has been reported for CN1CC2CCC(C1)C2Oc1ccc(N2C(=S)N(c3cnc(C#N)c(C(F)(F)F)c3)C(=O)C23CCC3)cc1 (stereo not drawn) ?
100

I am curious: what IC50 value has been reported for C#CCN1CC(Oc2ccc(N3C(=S)N(c4cnc(C#N)c(C(F)(F)F)c4)C(=O)C34CCC4)cc2)C1 ?
97.7

I am curious: what IC50 value has been reported for N#Cc1ncc(N2C(=O)C3(CCC3)N(c3ccc(N4CCOCC4)cc3)C2=S)cc1C(F)(F)F ?
115

I am curious: what IC50 value has been reported for N#Cc1ncc(N2C(=O)C3(CCC3)N(c3ccc4[nH]ncc4c3)C2=S)cc1Cl ?
302
